ASSAY SYSTEM: mGluR5 (Homo sapiens)
Sequence (P41594 21-1212): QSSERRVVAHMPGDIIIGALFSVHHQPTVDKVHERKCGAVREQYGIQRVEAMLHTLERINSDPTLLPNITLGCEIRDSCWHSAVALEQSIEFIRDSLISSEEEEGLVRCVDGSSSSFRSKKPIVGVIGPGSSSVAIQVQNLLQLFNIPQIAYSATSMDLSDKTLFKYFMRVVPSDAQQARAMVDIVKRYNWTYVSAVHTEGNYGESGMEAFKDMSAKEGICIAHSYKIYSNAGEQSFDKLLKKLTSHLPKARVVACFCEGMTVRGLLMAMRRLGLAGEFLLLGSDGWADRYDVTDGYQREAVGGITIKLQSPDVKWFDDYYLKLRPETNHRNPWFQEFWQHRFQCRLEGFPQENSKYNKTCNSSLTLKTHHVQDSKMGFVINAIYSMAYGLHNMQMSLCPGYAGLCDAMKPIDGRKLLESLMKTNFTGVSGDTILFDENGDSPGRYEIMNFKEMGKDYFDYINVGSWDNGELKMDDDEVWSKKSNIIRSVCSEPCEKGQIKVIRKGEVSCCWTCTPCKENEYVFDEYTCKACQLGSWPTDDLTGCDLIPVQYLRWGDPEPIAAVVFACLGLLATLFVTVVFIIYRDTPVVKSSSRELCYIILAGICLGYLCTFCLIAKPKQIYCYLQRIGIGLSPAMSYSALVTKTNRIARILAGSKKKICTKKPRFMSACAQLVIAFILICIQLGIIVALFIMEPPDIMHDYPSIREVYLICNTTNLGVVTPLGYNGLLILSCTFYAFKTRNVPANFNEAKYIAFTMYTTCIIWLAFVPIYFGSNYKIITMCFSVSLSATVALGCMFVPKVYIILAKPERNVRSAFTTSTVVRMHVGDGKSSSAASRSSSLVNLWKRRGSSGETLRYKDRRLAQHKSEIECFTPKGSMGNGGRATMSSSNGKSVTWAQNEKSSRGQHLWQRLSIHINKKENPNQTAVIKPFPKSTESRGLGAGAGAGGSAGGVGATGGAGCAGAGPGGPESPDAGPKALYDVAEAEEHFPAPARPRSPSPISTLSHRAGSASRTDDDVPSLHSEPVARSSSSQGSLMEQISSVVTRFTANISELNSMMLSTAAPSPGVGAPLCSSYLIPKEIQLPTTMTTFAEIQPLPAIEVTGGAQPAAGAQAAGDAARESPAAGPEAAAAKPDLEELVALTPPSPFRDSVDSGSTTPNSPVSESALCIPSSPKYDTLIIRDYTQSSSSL
PROCEDURE DETAILS: mGluR5 positive allosteric modulator (PAM) functional assay
pEC50: −log10 of the molar value.
QUANTITY KIND: pEC50

> print(dat)
                                   compound           assay.system     obs.value
1  CC(c1nc(-c2ccc(C#Cc3cccc(F)c3)cn2)no1)N(C)C (stereo not drawn) [Compound 104]  mGluR5 (Homo sapiens)  6.52 to 7.00
2  CN1CC(F)(F)C[C@@H]1c1nc(-c2ccc(C#Cc3ccccn3)cn2)no1 [Compound 154]  mGluR5 (Homo sapiens)  6.00 to 6.52
3  CC[C@H](C)c1nc(-c2ccc(C#Cc3cccc(F)c3)cc2)no1 (single isomer, unassigned) [Compound 30]  mGluR5 (Homo sapiens)  6.00 to 6.52
4  CNC(C)c1nc(-c2ccc(C#Cc3cccc(F)c3)cn2)no1 (stereo not drawn) [Compound 107]  mGluR5 (Homo sapiens)  7.00 to 7.52
5  CC(C)(C)c1nc(-c2ccc(C#Cc3ccc(F)cc3)cc2)no1 [Compound 66]  mGluR5 (Homo sapiens)  6.52 to 7.00
6  CO[C@H]1CN[C@@H](c2nc(-c3ccc(C#Cc4cccc(F)c4)cn3)no2)C1 [Compound 133]  mGluR5 (Homo sapiens)  7.00 to 7.52
7  CNC(C)c1nc(-c2ccc(C#Cc3ccncc3)cc2)no1 (stereo not drawn) [Compound 79]  mGluR5 (Homo sapiens)  6.52 to 7.00
8  C[C@H](c1nc(-c2ccc(C#Cc3cccc(F)c3)cn2)no1)N(C)C [Compound 105]  mGluR5 (Homo sapiens)  7.00 to 7.52
9  CCC(OC)c1nc(-c2ccc(C#Cc3ccncc3)nc2)no1 (stereo not drawn) [Compound 93]  mGluR5 (Homo sapiens)  7.00 to 7.52

* * *

ASSAY SYSTEM: UniProt P41594
PROCEDURE DETAILS: mGluR5 positive allosteric modulator (PAM) functional assay
QUANTITY KIND: EC50

> print(dat)
                                   molecule  quantity.kind      obs.value
1  CCC(c1nc(-c2ccc(C#Cc3cccc(F)c3)cn2)no1)N(C)C (stereo not shown)           EC50        ≤ 30 nM
2  CCC(OC)c1nc(-c2ccc(C#Cc3cccc(F)c3)cc2)no1 (stereo not shown)           EC50  100 to 300 nM
3  CCC(OC)c1nc(-c2ccc(C#Cc3cccc(F)c3)nc2)no1 (stereo not shown)           EC50        ≤ 30 nM
4  CCC(N)c1nc(-c2ccc(C#Cc3cccc(F)c3)cn2)no1 (stereo not shown)           EC50  100 to 300 nM
5  COC(C)c1nc(-c2ccc(C#Cc3cccc(F)c3)nc2)no1 (stereo not shown)           EC50   30 to 100 nM
6  CCC(C)c1nc(-c2ccc(C#Cc3cccc(F)c3)cn2)no1 (stereo not shown)           EC50        ≤ 30 nM
7  C#CCN1CCCC1c1nc(-c2ccc(C#Cc3cccc(F)c3)cn2)no1 (stereo not shown)           EC50        ≤ 30 nM
